Numbers sourced from patent US6458781B1.

readout.kind: melting point

Here are 3 compounds together with their reported answers.
compound: CC(C)C[C@H](NC(=O)N1CCCCCC1)C(=O)NCCCC1(c2ccccc2)C(=O)N(C)c2ccccc21 (stereo partly shown) [Example 10]
reported.value: 181 to 182 °C
//
compound: CC(C)C[C@H](NCc1ccc(C(C)(C)C)cc1)C(=O)N1CCN(C(c2ccc(F)cc2)c2ccc(F)cc2)CC1 [Example 58]
reported.value: 57 to 62 °C
//
compound: CC(C)C[C@@H](C(=O)N1CCN(C(c2ccc(F)cc2)c2ccc(F)cc2)CC1)N(Cc1ccc(C(C)(C)C)cc1)Cc1ccc(C(C)(C)C)cc1 [Example 59]
reported.value: 78 to 86 °C

Shift focus to the following entry.
Query string: # query: melting point of entry CC(C)C[C@H](NC(=O)N1CCCCCC1)C(=O)NCC(c1ccccc1)c1ccccc1 [Example 4]
Result string: 194 to 195 °C

---

Measured melting point accompanies every entry in the list below.
Where a name gives a salt, the structure may show the parent alone.

Here are 2 molecules together with their reported answers.
molecule: CC(C)C[C@@H](C(=O)NCCCC(c1ccc(F)cc1)c1ccc(F)cc1)N(C)C1CCCCC1 (as salt: hydrochloride) [Example 21, monohydrochloride]
melting point: 73 to 83 °C
--
molecule: CC(C)N[C@H](C(=O)NCCCC(c1ccc(F)cc1)c1ccc(F)cc1)C(C)C (as salt: hydrochloride)
melting point: 72 to 80 °C

Query string: # query: melting point of entry `CC(C)C[C@@H](C(=O)N1CCN(C(c2ccc(F)cc2)c2ccc(F)cc2)CC1)N1CCOCC1`
Result string: 55 to 63 °C

---

Where a name gives a salt, the structure may show the parent alone.
Measured melting point accompanies every entry in the list below.

Here are 3 compounds together with their reported answers.
compound: CCC(C)[C@H](NC(=O)N1CCCCCC1)C(=O)NCCCC(c1ccc(F)cc1)c1ccc(F)cc1 (stereo partly shown)
melting point: 50 to 60 °C
//
compound: CC(C)C[C@H](NC(=O)N1CCCCCC1)C(=O)N1CCN(C(c2ccccc2)c2ccccc2)CC1
melting point: 66 to 74 °C
//
compound: CC(C)[C@@H](C(=O)NCCCC(c1ccc(F)cc1)c1ccc(F)cc1)N(C)C1CCCCC1 (as salt: hydrochloride)
melting point: 82 to 86 °C

Shift focus to the following entry.
Query string: # query: melting point of entry `CC(C)CCN[C@@H](Cc1ccccc1)C(=O)N1CCN(C(c2ccc(F)cc2)c2ccc(F)cc2)CC1.Cl`
Result string: 172 to 186 °C

---

Molecular target: L-type calcium channels in A10 cells (Rattus norvegicus, UniProt P22002)
Construct: which endogenously expresses L-type calcium channels
Sequence (P22002 whole entry): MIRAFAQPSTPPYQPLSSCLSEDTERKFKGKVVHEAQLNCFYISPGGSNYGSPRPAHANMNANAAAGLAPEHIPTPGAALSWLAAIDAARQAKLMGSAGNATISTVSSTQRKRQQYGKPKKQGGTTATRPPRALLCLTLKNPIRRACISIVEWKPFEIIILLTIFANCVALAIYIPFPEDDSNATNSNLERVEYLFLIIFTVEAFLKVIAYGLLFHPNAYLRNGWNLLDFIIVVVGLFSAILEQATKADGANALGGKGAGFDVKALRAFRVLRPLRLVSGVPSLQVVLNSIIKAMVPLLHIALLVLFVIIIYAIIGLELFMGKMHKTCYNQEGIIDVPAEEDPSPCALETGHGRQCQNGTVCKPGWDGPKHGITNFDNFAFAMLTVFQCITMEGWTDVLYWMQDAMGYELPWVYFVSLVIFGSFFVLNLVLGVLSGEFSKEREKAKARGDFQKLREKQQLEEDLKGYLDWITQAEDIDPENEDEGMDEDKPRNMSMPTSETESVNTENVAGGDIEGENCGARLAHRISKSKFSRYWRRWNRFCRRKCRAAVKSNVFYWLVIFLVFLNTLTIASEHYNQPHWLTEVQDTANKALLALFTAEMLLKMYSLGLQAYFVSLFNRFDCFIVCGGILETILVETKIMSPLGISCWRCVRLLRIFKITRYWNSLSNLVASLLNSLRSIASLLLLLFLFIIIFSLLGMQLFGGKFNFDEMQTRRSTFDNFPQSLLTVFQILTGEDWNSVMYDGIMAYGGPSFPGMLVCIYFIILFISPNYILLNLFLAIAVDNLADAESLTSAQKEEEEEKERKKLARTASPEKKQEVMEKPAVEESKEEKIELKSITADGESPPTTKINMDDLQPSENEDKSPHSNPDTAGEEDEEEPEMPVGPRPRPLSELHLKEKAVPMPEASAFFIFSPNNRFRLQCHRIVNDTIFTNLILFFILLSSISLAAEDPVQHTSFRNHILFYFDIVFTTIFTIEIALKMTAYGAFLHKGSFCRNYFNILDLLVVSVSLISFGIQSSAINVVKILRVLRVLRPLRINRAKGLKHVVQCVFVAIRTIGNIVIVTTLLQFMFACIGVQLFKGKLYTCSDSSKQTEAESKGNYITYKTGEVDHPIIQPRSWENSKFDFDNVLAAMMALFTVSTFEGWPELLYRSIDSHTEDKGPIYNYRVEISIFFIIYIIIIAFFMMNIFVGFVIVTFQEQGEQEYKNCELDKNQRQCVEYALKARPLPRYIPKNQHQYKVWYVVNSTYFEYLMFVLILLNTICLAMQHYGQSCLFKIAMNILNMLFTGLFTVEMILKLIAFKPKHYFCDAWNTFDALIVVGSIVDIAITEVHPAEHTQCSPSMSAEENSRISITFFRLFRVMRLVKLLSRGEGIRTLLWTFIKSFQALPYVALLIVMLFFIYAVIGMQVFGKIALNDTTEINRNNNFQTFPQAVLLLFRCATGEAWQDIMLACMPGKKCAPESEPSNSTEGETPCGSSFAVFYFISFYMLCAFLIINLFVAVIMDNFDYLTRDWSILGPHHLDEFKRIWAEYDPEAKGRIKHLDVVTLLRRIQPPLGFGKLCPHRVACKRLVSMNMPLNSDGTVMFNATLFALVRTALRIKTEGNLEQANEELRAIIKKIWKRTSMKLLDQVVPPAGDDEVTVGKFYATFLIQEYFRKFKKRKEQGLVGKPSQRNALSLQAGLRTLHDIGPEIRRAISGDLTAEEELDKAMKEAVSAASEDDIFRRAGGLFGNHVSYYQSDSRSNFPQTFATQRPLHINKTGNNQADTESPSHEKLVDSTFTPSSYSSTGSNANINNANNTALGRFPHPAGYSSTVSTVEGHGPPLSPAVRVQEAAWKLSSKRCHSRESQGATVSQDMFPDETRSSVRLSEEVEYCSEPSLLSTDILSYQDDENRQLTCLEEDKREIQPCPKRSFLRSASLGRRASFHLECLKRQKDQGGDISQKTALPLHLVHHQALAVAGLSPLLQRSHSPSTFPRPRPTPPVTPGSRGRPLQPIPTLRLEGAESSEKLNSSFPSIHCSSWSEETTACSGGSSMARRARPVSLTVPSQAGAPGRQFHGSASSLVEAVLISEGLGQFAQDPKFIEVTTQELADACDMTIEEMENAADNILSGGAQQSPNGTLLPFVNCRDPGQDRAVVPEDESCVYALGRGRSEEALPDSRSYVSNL
Sequence (P54290 25-944 partner limits assumed): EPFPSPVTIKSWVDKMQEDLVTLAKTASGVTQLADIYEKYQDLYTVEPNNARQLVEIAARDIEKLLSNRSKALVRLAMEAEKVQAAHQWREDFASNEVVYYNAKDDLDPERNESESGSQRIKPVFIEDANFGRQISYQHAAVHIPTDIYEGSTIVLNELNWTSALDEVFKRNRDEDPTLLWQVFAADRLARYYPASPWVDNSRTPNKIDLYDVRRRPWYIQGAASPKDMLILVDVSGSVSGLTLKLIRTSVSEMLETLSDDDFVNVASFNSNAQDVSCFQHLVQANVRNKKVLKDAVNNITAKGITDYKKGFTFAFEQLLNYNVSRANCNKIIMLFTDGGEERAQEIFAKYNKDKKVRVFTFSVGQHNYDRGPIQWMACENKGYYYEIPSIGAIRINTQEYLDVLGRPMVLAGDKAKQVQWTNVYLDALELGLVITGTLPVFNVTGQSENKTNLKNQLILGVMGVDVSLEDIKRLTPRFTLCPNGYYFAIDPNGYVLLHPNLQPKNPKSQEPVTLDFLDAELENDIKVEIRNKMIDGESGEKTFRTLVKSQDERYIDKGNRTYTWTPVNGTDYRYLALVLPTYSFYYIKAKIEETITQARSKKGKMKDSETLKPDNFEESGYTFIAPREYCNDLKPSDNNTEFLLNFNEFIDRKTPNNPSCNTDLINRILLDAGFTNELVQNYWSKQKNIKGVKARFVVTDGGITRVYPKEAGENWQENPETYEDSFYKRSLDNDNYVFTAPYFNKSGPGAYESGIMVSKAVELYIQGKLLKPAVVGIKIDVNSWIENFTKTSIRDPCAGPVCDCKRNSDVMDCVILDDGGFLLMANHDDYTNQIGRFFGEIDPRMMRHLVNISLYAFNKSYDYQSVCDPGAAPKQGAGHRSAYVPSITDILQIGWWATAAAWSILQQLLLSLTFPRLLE
Sequence (P54290 945-1091 partner limits assumed): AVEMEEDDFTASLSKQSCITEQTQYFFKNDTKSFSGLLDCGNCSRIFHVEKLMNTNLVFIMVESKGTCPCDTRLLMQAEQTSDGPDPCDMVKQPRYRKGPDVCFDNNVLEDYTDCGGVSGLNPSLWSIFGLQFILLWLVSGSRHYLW
Sequence (P54287 whole entry partner): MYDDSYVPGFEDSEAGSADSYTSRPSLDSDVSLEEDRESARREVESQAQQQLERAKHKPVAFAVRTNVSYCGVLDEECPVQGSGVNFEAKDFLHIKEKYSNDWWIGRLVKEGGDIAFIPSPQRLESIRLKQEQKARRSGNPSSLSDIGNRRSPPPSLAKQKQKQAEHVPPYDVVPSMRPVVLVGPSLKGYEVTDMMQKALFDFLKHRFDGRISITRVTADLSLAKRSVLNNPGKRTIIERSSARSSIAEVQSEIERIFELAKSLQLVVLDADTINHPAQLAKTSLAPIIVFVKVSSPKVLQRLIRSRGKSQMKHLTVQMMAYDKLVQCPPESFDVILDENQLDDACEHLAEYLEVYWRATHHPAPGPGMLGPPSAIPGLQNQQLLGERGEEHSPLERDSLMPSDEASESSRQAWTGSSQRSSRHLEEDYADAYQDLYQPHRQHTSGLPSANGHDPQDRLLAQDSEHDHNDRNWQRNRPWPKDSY
Assay: L-type Ca2+ channel blocking potency in A10 cells (FLIPR)
Conditions: read-out: FLPA10 IC50
Counter-ions that a name gives are not always drawn.
Measured pIC50 accompanies every entry in the list below.
Keep in mind that pIC50 stands for -log10 of concentration in molar terms.

Here are 4 compounds together with their reported answers.
compound: O=C(CNC(=O)N1CCCCCC1)N1CCN(C(c2ccc(F)cc2)c2ccc(F)cc2)CC1 [Example 32]
pIC50: 5.74
--
compound: CC(C)=CCN[C@@H](CC(C)C)C(=O)NCCCC(c1ccc(F)cc1)c1ccc(F)cc1 [Example 9, monohydrochloride]
pIC50: 6.41
--
compound: CC(C)C[C@H](NC(C)C)C(=O)N1CCN(C(c2ccc(F)cc2)c2ccc(F)cc2)CC1 [Example 49, monohydrochloride]
pIC50: 6.00
--
compound: CC(C)C[C@@H](C(=O)NCCCC(c1ccc(F)cc1)c1ccc(F)cc1)N(C)C(C)C [Example 68]
pIC50: 6.28

Query string: # query: pIC50 of entry CC(C)C[C@H](NC(=O)N1CCCCCC1)C(=O)N1CCN(C2c3ccccc3-c3ccccc32)CC1 [Example 45]
Result string: 6.03

Query string: What do you have for CC(C)C[C@@H](C(=O)NCCC(c1ccccc1)c1ccccc1)N1CCCCC1.Cl [Example 24, monohydrochloride] ?
Result string: 5.82
